target-entity: Bile acid receptor (Homo sapiens)
test-description: OT_FXR_FXRSRC1_0480: Odyssey Thera (OT) 8-hour HEK293T Protein-Complementation Assay for Farnesoid X receptor/SRC-1 Co-activator (AID 2283383)
Records with an inconclusive call do not appear. The source made the active and inactive calls. How the source made its calls: active means hit-call score of the fitted dose curve at least 0.9, where 1 is the maximum; inconclusive means response in the unintended direction; inactive means score below 0.9.
Outcome codes: active, inactive

{"columns": ["molecule", "target-entity", "category-label"],
 "data": [
  ["OCc1ccco1", "Bile acid receptor (Homo sapiens)", "inactive"],
  ["ClC1(Cl)C2(Cl)C3(Cl)C4(Cl)C(Cl)(Cl)C5(Cl)C3(Cl)C1(Cl)C5(Cl)C24Cl (configuration not stated)", "Bile acid receptor (Homo sapiens)", "inactive"],
  ["c1cc[c]([Hg][c]2ccccc2)cc1", "Bile acid receptor (Homo sapiens)", "active"],
  ["CNC(=O)O/N=C/C(C)(C)S(C)=O (configuration not stated)", "Bile acid receptor (Homo sapiens)", "inactive"],
  ["CC(C)(C)c1cc(O)ccc1O", "Bile acid receptor (Homo sapiens)", "inactive"],
  ["CCOP(=S)(OCC)Oc1nc(Cl)c(Cl)cc1Cl", "Bile acid receptor (Homo sapiens)", "active"],
  ["C=C(C)C#N", "Bile acid receptor (Homo sapiens)", "inactive"]
]}
